Kindly state normalised viability for each of the entries shown.
system: CAL-85-1; assay: normalised viability (% of control), CellTiter-Blue; higher = more viable cells (about 100 = DMSO control); details: incubation time: 72 h

Study these solved cases before continuing.
molecule	normalised viability
O=C(Nc1cccnc1)N1CCC(Cc2cccc(Oc3ccc(C(F)(F)F)cn3)c2)CC1 [PF-3845] (300 nM)	93%
O=C(/C=C/c1cccc(S(=O)(=O)Nc2ccccc2)c1)NO [Belinostat] (300 nM)	72.5%
Cc1cc(Nc2cc(CN3CCOCC3)c3nc(C)c(Cc4ccc(Cl)cc4F)n3n2)n[nH]1 (300 nM)	103%
CNC(=O)c1cc(Oc2ccc(NC(=O)Nc3ccc(Cl)c(C(F)(F)F)c3)c(F)c2)ccn1 [Regorafenib] (300 nM)	85.3%
CO[C@H]1C[C@@H]2CC[C@@H](C)[C@@](O)(O2)C(=O)C(=O)N2CCCC[C@H]2C(=O)O[C@H]([C@H](C)C[C@@H]2CC[C@@H](OP(C)(C)=O)[C@H](OC)C2)CC(=O)[C@H](C)/C=C(\C)[C@@H](O)[C@@H](OC)C(=O)[C@H](C)C[C@H](C)/C=C/C=C/C=C/1C [Ridaforolimus] (30 nM)	53.8%

// input: 3 molecules below; output: normalised viability for each
1. Cc1ccc(NC(=O)c2ccc(CN3CCN(C)CC3)cc2)cc1Nc1nc(-c2cccnc2)cs1 [Masitinib] (300 nM)
2. C=C1C[C@@H]2[C@H](CC[C@]3(C)C(=O)CC[C@@H]23)[C@@]2(C)C=CC(=O)C=C12 [Exemestane] (300 nM)
3. COC(=O)c1ccc2c(c1)NC(=O)/C2=C(\Nc1ccc(N(C)C(=O)CN2CCN(C)CC2)cc1)c1ccccc1 [BIBF 1120] (300 nM)

Resp:
1. 90.4%
2. 88.5%
3. 111%

###

system: CAL-148; settings: 72 h
quantity: EC50, CellTiter-Blue viability

item.smiles	EC50, CellTiter-Blue viability
COCC[n+]1c2c(n(Cc3cnccn3)c1C)C(=O)c1ccccc1C2=O	0.0116 µM
O=C(Nc1ccncc1)C(=O)c1cn(Cc2ccc(Cl)cc2)c2ccccc12	5 µM
CCc1c2c(nc3ccc(OC(=O)N4CCC(N5CCCCC5)CC4)cc13)-c1cc3c(c(=O)n1C2)COC(=O)[C@]3(O)CC	1.17 µM

Req: Please provide the recorded EC50, CellTiter-Blue viability for CO[C@H]1C[C@@H]2CC[C@@H](C)[C@@](O)(O2)C(=O)C(=O)N2CCCC[C@H]2C(=O)O[C@H]([C@H](C)C[C@@H]2CC[C@@H](OP(C)(C)=O)[C@H](OC)C2)CC(=O)[C@H](C)/C=C(\C)[C@@H](O)[C@@H](OC)C(=O)[C@H](C)C[C@H](C)/C=C/C=C/C=C/1C , tested on CAL-148.
Resp: 0.00064 µM

###

Kindly state normalised response for each of the entries shown.
tested on: BT-474; experiment: normalised response (% of control), CellTiter-Glo; higher = more viable cells (100 = DMSO, 0 = benzethonium chloride kill control); details: incubation time: 72 h
Answers are plain numbers, in %.

// input: 6 molecules below; output: normalised response for each
1. COc1cc2ncnc(Nc3ccc(F)c(Cl)c3)c2cc1OCCCN1CCOCC1 [Gefitinib] (100 nM)
2. O=C(Nc1cccnc1)N1CCC(Cc2cccc(Oc3ccc(C(F)(F)F)cn3)c2)CC1 [PF-3845] (100 nM)
3. Nc1cc(C(F)(F)F)c(-c2cc(N3CCOCC3)nc(N3CCOCC3)n2)cn1 [Buparlisib] (100 nM)
4. CNC(=O)c1cc(Oc2ccc(NC(=O)Nc3ccc(Cl)c(C(F)(F)F)c3)c(F)c2)ccn1 [Regorafenib] (100 nM)
5. CCOC(=O)CCNc1cc(N2CCc3ccccc3CC2)nc(-c2ccccn2)n1 [GSK-J4] (1000 nM)
6. COCC1(CO)C(=O)C2CCN1CC2 (stereo unspecified) [Prima-1 Met] (100 nM)

Resp:
1. 96.5
2. 103
3. 97.3
4. 99
5. 99.7
6. 96.8
